All values here come from the RepoRT retention time repository (doi:10.1021/pr300673x).

run_description: RP, 50 × 2.1 mm, 1.7 µm, 0.5 mL/min, estimated dead time 0.22 min; A: 98% water + 2% acetonitrile + 0.1% formic acid, pH 3; B: 2% water + 98% acetonitrile + 0.1% formic acid, pH 3; gradient (min/%B) 0/0 0.5/0 4/60 8/100 9/100 9.2/0 10/0
condition_details: stereoisomer not certain
Mark each entry Condition met if its LC retention time sits below 6 min, and Condition not met for all others.

{"molecule": "CCCCCCCCC=CCCCCCCCC(N)=O [oleamide]", "cat": "Condition not met"}
{"molecule": "[NH3+]C(Cc1ccccc1)C(=O)NC(Cc1ccccc1)C(=O)[O-] (stereo not drawn)", "cat": "Condition met"}
{"molecule": "CCCCCCCCCC(=O)O[C@H](CC(=O)[O-])C[N+](C)(C)C", "cat": "Condition met"}
{"molecule": "CC(CCC(=O)NCC(=O)O)C1CCC2C3CCC4CC(O)CCC4(C)C3CC(O)C12C (stereo not drawn)", "cat": "Condition met"}
{"molecule": "CCCCCC=CCC=CCCCCCCCC(=O)O", "cat": "Condition not met"}
{"molecule": "CCCCCC=CCC=CCC=CCC=CCCCC(=O)OCC(O)COP(=O)([O-])OCC[N+](C)(C)C (stereo not drawn)", "cat": "Condition not met"}
{"molecule": "CC(=CCCC(C)C1CCC2C3C(O)CC4CC(O)CCC4(C)C3CCC12C)C(=O)O (racemic)", "cat": "Condition not met"}

----------
Attribute: LC retention time
run_description: RP, 50 × 2.1 mm, 1.7 µm, 0.5 mL/min, estimated dead time 0.22 min; A: 98% water + 2% acetonitrile + 0.1% formic acid, pH 3; B: 2% water + 98% acetonitrile + 0.1% formic acid, pH 3; gradient (min/%B) 0/0 0.5/0 4/60 8/100 9/100 9.2/0 10/0
condition_details: stereoisomer not certain

{"compound": "CCCCCCCCCCCCCCCCCC(O)CC(=O)O (stereo not drawn) [3-hydroxyeicosanoic acid]", "LC retention time (min)": 7.39}
{"compound": "CC(=O)Cc1ccccc1", "LC retention time (min)": 3.31}
{"compound": "CCCCCCCCC=CCCCCCCCC(=O)OC(CC(=O)[O-])C[N+](C)(C)C (stereo not drawn)", "LC retention time (min)": 6.24}
